Reported Fold IC50 increase relative to wild-type values are given for each entry in this list.
# measured.target: HIV-1 JR-CSF Env N302A (HIV-1 JR-CSF) (UniProt P20871)
# assay.summary: cell-based or functional assay
value.kind: Fold IC50 increase relative to wild-type

{"columns": ["binder", "result"],
 "data": [
  ["PGT-125 (antibody, V domains shown) VH: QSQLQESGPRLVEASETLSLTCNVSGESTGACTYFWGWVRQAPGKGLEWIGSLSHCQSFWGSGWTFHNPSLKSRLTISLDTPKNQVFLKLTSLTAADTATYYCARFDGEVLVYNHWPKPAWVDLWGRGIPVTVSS VL: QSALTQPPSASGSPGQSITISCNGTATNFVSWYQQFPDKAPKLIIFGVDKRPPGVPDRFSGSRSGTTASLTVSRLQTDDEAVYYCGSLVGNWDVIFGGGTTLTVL", "0.7 fold"],
  ["PGT-127 (antibody, V domains shown) VH: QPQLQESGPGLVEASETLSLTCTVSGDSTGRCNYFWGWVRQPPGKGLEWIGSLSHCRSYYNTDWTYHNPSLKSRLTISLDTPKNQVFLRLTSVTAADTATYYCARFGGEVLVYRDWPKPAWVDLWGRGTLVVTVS VL: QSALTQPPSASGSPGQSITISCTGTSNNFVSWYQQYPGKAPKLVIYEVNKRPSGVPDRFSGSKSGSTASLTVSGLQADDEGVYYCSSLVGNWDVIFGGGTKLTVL", "3 fold"],
  ["PGT-128 (antibody, V domains shown) VH: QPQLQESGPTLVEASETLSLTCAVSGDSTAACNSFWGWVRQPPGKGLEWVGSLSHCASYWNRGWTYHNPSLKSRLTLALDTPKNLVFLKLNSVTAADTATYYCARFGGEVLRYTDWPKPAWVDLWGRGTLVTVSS VL: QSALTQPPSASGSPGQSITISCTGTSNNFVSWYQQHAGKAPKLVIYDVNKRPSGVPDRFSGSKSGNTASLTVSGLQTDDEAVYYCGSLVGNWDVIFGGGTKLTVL", "1.5 fold"]
]}
